Documented glass transition temperature across a set of compounds

| compound | quantity unit | glass transition temperature |
| --- | --- | --- |
| *C(=O)c1ccc(N(*)CCCC)cc1 (repeat unit) | °C | 124.00 |
| *C(=O)Nc1ccc(-c2ccc(NC(=O)c3ccc4c(c3)C(=O)N(c3c(C)cc(C)c(N5C(=O)c6ccc(*)cc6C5=O)c3C)C4=O)cc2C(F)(F)F)c(C(F)(F)F)c1 (repeat unit) | °C | 267.00 |
| *O[Si](*)(C)CCc1cc(C(=O)Oc2ccc(OCCCC)cc2)ccc1-c1ccc(C(=O)Oc2ccc(OCCCC)cc2)cc1 (repeat unit) | °C | 96.00 |
| *C(=O)c1ccc2c(c1)C(=O)N(C1CCC(CC3CCC(N4C(=O)c5ccc(*)cc5C4=O)C(C)C3)CC1C)C2=O (repeat unit) | °C | 240.00 |
